Test system: HIV with mutations in the HIV protease sequence
PROTOCOL TEXT: Phenotypic fold resistance to protease inhibitors, protease mutations 84A/84L/84C/54M/54L/54V in a background (Examples 8-13)
Format: cell-based, HIV-1
PROTOCOL CONDITIONS: Table 11 #8, protease genotype 77I + 84V
Output Condition met for mean fold increase in resistance not less than 3 fold; output Condition not met otherwise.

Answered examples (4):
CC(C)CN(C[C@@H](O)[C@H](Cc1ccccc1)NC(=O)O[C@H]1CCOC1)S(=O)(=O)c1ccc(N)cc1 [Amprenavir, amprenavir]    Condition met
CC(C)(C)NC(=O)[C@@H]1CN(Cc2cccnc2)CCN1C[C@@H](O)C[C@@H](Cc1ccccc1)C(=O)N[C@H]1c2ccccc2C[C@H]1O [Indinavir, indinavir]    Condition not met
CC(C)(C)NC(=O)[C@@H]1C[C@@H]2CCCC[C@@H]2CN1C[C@@H](O)[C@H](Cc1ccccc1)NC(=O)[C@H](CC(N)=O)NC(=O)c1ccc2ccccc2n1 [Saquinavir, saquinavir]    Condition met
CC(C)c1nc(CN(C)C(=O)N[C@H](C(=O)N[C@@H](Cc2ccccc2)C[C@H](O)[C@H](Cc2ccccc2)NC(=O)OCc2cncs2)C(C)C)cs1 [Ritonavir, ritonavir]    Condition met

Next, consider the following compound.
Lookup: Say whether Cc1c(O)cccc1C(=O)N[C@@H](CSc1ccccc1)[C@H](O)CN1C[C@H]2CCCC[C@H]2C[C@H]1C(=O)NC(C)(C)C [Nelfinavir, nelfinavir] shows mean fold increase in resistance of 3 fold or more.
Found: Condition not met

---

System: HIV with mutations in the HIV protease sequence
PROTOCOL TEXT: Phenotypic fold resistance to protease inhibitors, protease mutations 84A/84L/84C/54M/54L/54V in a background (Examples 8-13)
Type: cell-based, HIV-1
PROTOCOL CONDITIONS: Table 13, V030496, genotype 10I + 77I
Some compounds, each annotated with its measured Fold change in IC50.
Just so you know, I need the unit written after the number.

Lookup: Recorded Fold change in IC50 of CC(C)(C)NC(=O)[C@@H]1CN(Cc2cccnc2)CCN1C[C@@H](O)C[C@@H](Cc1ccccc1)C(=O)N[C@H]1c2ccccc2C[C@H]1O [Indinavir, indinavir] , please.
Found: 0.4 fold

Lookup: Also CC(C)c1nc(CN(C)C(=O)N[C@H](C(=O)N[C@@H](Cc2ccccc2)C[C@H](O)[C@H](Cc2ccccc2)NC(=O)OCc2cncs2)C(C)C)cs1 [Ritonavir, ritonavir] ?
Found: 0.5 fold

---

Test system: HIV with mutations in the HIV protease sequence
PROTOCOL TEXT: Phenotypic fold resistance to protease inhibitors, protease mutations 84A/84L/84C/54M/54L/54V in a background (Examples 8-13)
Format: cell-based, HIV-1
PROTOCOL CONDITIONS: Table 13, V052976, genotype 10I + 54L + 71V + 77I + 90M
Output Fulfilled for Fold change in IC50 not less than 2 fold; output Not fulfilled otherwise.

Answered examples (3):
CC(C)(C)NC(=O)[C@@H]1C[C@@H]2CCCC[C@@H]2CN1C[C@@H](O)[C@H](Cc1ccccc1)NC(=O)[C@H](CC(N)=O)NC(=O)c1ccc2ccccc2n1    Not fulfilled
CC(C)c1nc(CN(C)C(=O)N[C@H](C(=O)N[C@@H](Cc2ccccc2)C[C@H](O)[C@H](Cc2ccccc2)NC(=O)OCc2cncs2)C(C)C)cs1    Fulfilled
CC(C)(C)NC(=O)[C@@H]1CN(Cc2cccnc2)CCN1C[C@@H](O)C[C@@H](Cc1ccccc1)C(=O)N[C@H]1c2ccccc2C[C@H]1O    Not fulfilled

Lookup: Say whether "Cc1c(O)cccc1C(=O)N[C@@H](CSc1ccccc1)[C@H](O)CN1C[C@H]2CCCC[C@H]2C[C@H]1C(=O)NC(C)(C)C" shows Fold change in IC50 of 2 fold or more.
Found: Fulfilled
